Source of measurements: ChEMBL document CHEMBL3751764

- procedureText: Cytotoxicity against human PC3 cells assessed as cell growth at 10 uM after 72 hrs by SRB assay relative to control
- Type: functional
- settings: PC-3, 72 h, read-out: Activity
// reported growth at 10 µM for each item listed
Write the value in % as a bare number.

See these solved cases before continuing.
[
  {
    "compoundSmiles": "c1ccc(COc2ccc(Nc3ncnc4c3cnn4-c3ccccc3)cc2)cc1",
    "recordedValue": 88.5
  },
  {
    "compoundSmiles": "O=C(NC1CCCCC1)c1ccc(Nc2ncnc3c2cnn3-c2ccccc2)cc1",
    "recordedValue": 53.3
  }
]

Next molecule, growth at 10 µM to be filled in.
Req: Answer with reported growth at 10 µM of O=c1sc2cc(Nc3ncnc4c3cnn4-c3ccccc3)ccc2n1Cc1ccc(Cl)cc1
Resp: 55.6

###

- procedureText: Cytotoxicity against human HOP62 cells assessed as cell growth at 10 uM after 72 hrs by SRB assay relative to control
- Assay type: functional
- settings: HOP-62, 72 h, read-out: Activity
// reported growth at 10 µM for each item listed
Write the value in % as a bare number.

See these solved cases before continuing.
[
  {
    "compoundSmiles": "c1ccc(COc2ccc(Nc3ncnc4c3cnn4-c3ccccc3)cc2)cc1",
    "endpointUnit": "%",
    "recordedValue": 104
  },
  {
    "compoundSmiles": "Cc1ccc2nc(Nc3ncnc4c3cnn4-c3ccccc3)sc2c1",
    "endpointUnit": "%",
    "recordedValue": 110
  }
]

Next compound, growth at 10 µM to be filled in.
Req: Answer with reported growth at 10 µM of Clc1ccc(-n2ncc3c(Nc4ccc(OCc5ccccc5)cc4)ncnc32)cc1
Resp: 81.6
